assay: Half-lives and pharmacokinetic parameters of polypeptides vs HM-1; settings: in vivo, T1/2β (half-life); note: test concentration or dose not given here
Peptide text beside a SMILES is read from it. * marks the point of attachment. X22 = O=C1C=CC(=O)N1CCOCCOCCOCCOCCOCCOCCCCCC(=O)*; X68 = O=C1C=CC(=O)N1c1ccccc1CCCCCCCCCCCC(=O)*; X77 = O=C1C=CC(=O)N1CCCCCCCCCCC(=O)*
half-life overview
Note: unit min is implicit; provide only the numeric part.

Sample answers from the record:
molecule	half-life, min
C[C@H](NC(=O)CNC(=O)[C@H](CCCNC(=N)N)NC(=O)CCCCCCCCCCN1C(=O)C=CC1=O)C(=O)N[C@@H](CC(=O)O)C(=O)N[C@@H](CCCNC(=N)N)C(=O)N[C@@H](C)C(=O)NCC(=O)NCC(=O)NCC(=O)NCC(=O)N[C@@H](CCCNC(=N)N)C(=O)NCC(=O)N[C@@H](CC(=O)O)C(=O)O [X10] (X77-RGADRAGGGGRGD-OH)	2320
C[C@H](NC(=O)CNC(=O)[C@H](CCCNC(=N)N)NC(=O)CCCCCCCCCCCc1ccccc1N1C(=O)C=CC1=O)C(=O)N[C@@H](CC(=O)O)C(=O)N[C@@H](CCCNC(=N)N)C(=O)N[C@@H](C)C(=O)NCC(=O)NCC(=O)NCC(=O)NCC(=O)N[C@@H](CCCNC(=N)N)C(=O)NCC(=O)N[C@@H](CC(=O)O)C(=O)O [X23] (X68-RGADRAGGGGRGD-OH)	1900

Here is another molecule to look at.
Problem: Assign half-life to the following record: C[C@H](NC(=O)CNC(=O)[C@H](CCCNC(=N)N)NC(=O)CCCCCOCCOCCOCCOCCOCCOCCN1C(=O)C=CC1=O)C(=O)N[C@@H](CC(=O)O)C(=O)N[C@@H](CCCNC(=N)N)C(=O)N[C@@H](C)C(=O)NCC(=O)NCC(=O)NCC(=O)NCC(=O)N[C@@H](CCCNC(=N)N)C(=O)NCC(=O)N[C@@H](CC(=O)O)C(=O)O [X88] (X22-RGADRAGGGGRGD-OH)
Solution: 2370
